assay-info: potentiometric pH titration for pKa (ionization constant)
Format: physicochemical
condition: isopropyl alcohol (ISA)/water mixture, aqueous pKa, 23° C., Yasuda-Shedlovsky extrapolation to zero ISA
assay-metric: pKa
Answers are plain numbers.

## Task Specify pKa for CCN(CC)C(=O)/C(C#N)=N/O and stop.
## Result 5.62
